Hey, just so you know, these numbers are from patent US20240317858A1.

Please respond with reported pKd for every item in the list.
- test_system: T1, Cynomolgus CD3εδ Fc heterodimer (Cy CD3ε Fc + CD3δ Fc-HIS) (cynomolgus, UniProt Q95LI5 22-117; Q95LI8 22-100)
- T1 construct: range 22-117;range 22-100; Made in HEK 293 cells with a heterologous signal peptide; also called Cy CD3εδ-Fc; cyno CD3εδ Fc; not shown: Fc; Fc followed by HIS tag
- T1 sequence (Q95LI5 22-117, stated change not applied, form in doubt, chain 1 of 2): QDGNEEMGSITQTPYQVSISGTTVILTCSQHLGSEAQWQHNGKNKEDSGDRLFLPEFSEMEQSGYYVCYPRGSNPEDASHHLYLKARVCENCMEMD
- T1 sequence (Q95LI8 22-100, stated change not applied, form in doubt, chain 2 of 2): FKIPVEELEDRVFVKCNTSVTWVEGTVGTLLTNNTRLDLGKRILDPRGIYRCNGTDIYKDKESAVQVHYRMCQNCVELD
- test_name: SPR (Biacore), Fab over immobilized CD3εδ Fc, pH 7.4
Give bare numbers, as −log10 of the molar value.

Antibody No. A003 (ADI-26913) Fab (Fab, V domains shown, Fab by papain digestion of the IgG1) VH: QVQLVQSGAEVKKPGASVKVSCKASGFNIKDYYMHWVRQAPGQRLEWMGWIDLENANTIYDAKFQGRVTITRDTSASTAYMELSSLRSEDTAVYYCARDQYGRYFYDVWGQGTLVTVSS VL: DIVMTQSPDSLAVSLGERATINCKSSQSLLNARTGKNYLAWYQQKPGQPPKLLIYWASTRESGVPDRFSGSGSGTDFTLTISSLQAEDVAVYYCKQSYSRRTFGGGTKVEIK	8.03
Antibody No. V009 (ADI-70326) Fab (Fab, V domains shown, Fab by papain digestion of the IgG1) VH: QVQLVQSGAEVKKPGASVKVSCKASGFDIKDYYMHWVRQAPGQRLEWIGWIELENADTVYDAKFQGRVTITRDTSASTAYMELSSLRSEDTAVYYCARDAYGRYFYDVWGQGTLVTVSS VL: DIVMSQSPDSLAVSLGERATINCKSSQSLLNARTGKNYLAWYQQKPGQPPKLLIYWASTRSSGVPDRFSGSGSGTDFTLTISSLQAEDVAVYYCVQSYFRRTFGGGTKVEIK	9.82

Item: Antibody No. A005 (ADI-26921) Fab (Fab, V domains shown, Fab by papain digestion of the IgG1) VH: QVQLVQSGAEVKKPGASVKVSCKASGFNIKDYYMHWVRQAPGQRLEWMGWIDLEEGNTIYDAKFQGRVTITRDTSASTAYMELSSLRSEDTAVYYCARDAYGRYFYDVWGQGTLVTVSS VL: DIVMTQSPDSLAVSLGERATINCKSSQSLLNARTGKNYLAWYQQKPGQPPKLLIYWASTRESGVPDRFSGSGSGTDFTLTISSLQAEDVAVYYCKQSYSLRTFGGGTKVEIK | pKd: 7.48
